test system: 379773-124-R-J2-PDC complex spheroids, viability % test/control; assay: Anticancer human tumor 379773-124-R-J2-PDC patient-derived endometrial carcinoma cell line growth inhibition [CLK]; details: second compound 10 µM; first compound 10 µM; active = viability on the fitted dose curve at most 10% of control; inactive = the rest
Return exactly one item of active, inactive

>>> answer_label("COc1ccc([C@@H](O)c2cc(-c3ncnc4cc(N5CCOCC5)ccc34)c(F)cc2Cl)nn1 + CN1CCN(c2cc(C(=O)Nc3cc4cc(-c5cnn(C)c5)ccc4cn3)ccn2)CC1")
"active"
>>> answer_label("C=C(F)C(=O)N1CCN(c2nc(OCC3CCCN3C)nc3c2CCN(c2cccc4cccc(Cl)c24)C3)CC1CC#N (stereo not given) + CNC(=O)c1ccc(Nc2nc(OC3CCCC3)c3c(-c4ccc5nc(C)oc5c4)c[nH]c3n2)c(OC)c1")
"active"
>>> answer_label("O=c1[nH]cc(F)c(=O)[nH]1 + CNC(=O)c1ccc(Nc2nc(OC3CCCC3)c3c(-c4ccc5nc(C)oc5c4)c[nH]c3n2)c(OC)c1")
"active"
>>> answer_label("CC(Nc1ccc2c(c1)OCCn1cc(N3C(=O)OCC3C(F)F)nc1-2)C(N)=O (stereo not given) + CNC(=O)c1ccc(Nc2nc(OC3CCCC3)c3c(-c4ccc5nc(C)oc5c4)c[nH]c3n2)c(OC)c1")
"inactive"

**Query** Field: outcome | Entry: CC(=O)O[C@H]1C(=O)[C@@]2(C)[C@H]([C@H](OC(=O)c3ccccc3)[C@]3(O)C[C@H](OC(=O)[C@H](O)[C@@H](NC(=O)c4ccccc4)c4ccccc4)C(C)=C1C3(C)C)[C@]1(OC(C)=O)CO[C@@H]1C[C@@H]2O + CN1CCN(c2cc(C(=O)Nc3cc4cc(-c5cnn(C)c5)ccc4cn3)ccn2)CC1
**Result** active

----------
test system: 379773-124-R-J2-PDC complex spheroids, viability % test/control; experiment: Anticancer human tumor 379773-124-R-J2-PDC cell line growth inhibition [CLK]; details: second compound 0.316 µM; first compound 0.316 µM; active = viability on the fitted dose curve at most 10% of control; inactive = the rest;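 note: compound exposure lasted seven days before the viability readout; 100% = DMSO vehicle control wells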
Response enum: class 1 (active), class 0 (inactive)

Completed entries (count: 4):
>>> answer_label("CC1COCCN1c1cc(C2(S(C)(=N)=O)CC2)nc(-c2ccnc3[nH]ccc23)n1 (stereo not given) + CNC(=O)c1ccc(Nc2nc(OC3CCCC3)c3c(-c4ccc5nc(C)oc5c4)c[nH]c3n2)c(OC)c1")
"class 0"
>>> answer_label("CC1(C)CCC(CN2CCN(c3ccc(C(=O)NS(=O)(=O)c4ccc(NCC5CCOCC5)c([N+](=O)[O-])c4)c(Oc4cnc5[nH]ccc5c4)c3)CC2)=C(c2ccc(Cl)cc2)C1 + CNC(=O)c1ccc(Nc2nc(OC3CCCC3)c3c(-c4ccc5nc(C)oc5c4)c[nH]c3n2)c(OC)c1")
"class 0"
>>> answer_label("O=c1[nH]cc(F)c(=O)[nH]1 + CN1CCN(c2cc(C(=O)Nc3cc4cc(-c5cnn(C)c5)ccc4cn3)ccn2)CC1")
"class 0"
>>> answer_label("CCc1c2c(nc3ccc(O)cc13)-c1cc3c(c(=O)n1C2)COC(=O)[C@]3(O)CC + CNC(=O)c1ccc(Nc2nc(OC3CCCC3)c3c(-c4ccc5nc(C)oc5c4)c[nH]c3n2)c(OC)c1")
"class 1"

**Query** Can you look up the reported call for CCN1CCN(Cc2ccc(Nc3ncc(F)c(-c4cc(F)c5nc(C)n(C(C)C)c5c4)n3)nc2)CC1 + CN1CCN(c2cc(C(=O)Nc3cc4cc(-c5cnn(C)c5)ccc4cn3)ccn2)CC1 for me?
**Result** class 0
